Target: UniProt:Q6WVP7
Sequence (Q6WVP7 2-252 limits assumed): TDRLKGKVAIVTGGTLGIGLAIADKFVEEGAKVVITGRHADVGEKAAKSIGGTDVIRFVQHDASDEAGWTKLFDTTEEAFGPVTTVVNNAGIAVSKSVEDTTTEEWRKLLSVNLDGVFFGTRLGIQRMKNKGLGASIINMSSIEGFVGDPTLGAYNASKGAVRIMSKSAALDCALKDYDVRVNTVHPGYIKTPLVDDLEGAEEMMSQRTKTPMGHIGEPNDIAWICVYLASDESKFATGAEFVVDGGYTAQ
Test: Effect of metal cations, inhibitors and SH-protecting reagents on enzyme activity
Format: biochemical, Lactobacillus kefir
Details: pH 7; read-out: Activity remaining
Source text: Partially purified enzyme (after Mono-Q chromatography, concentrated 20-fold) was employed for the following tests. (i) METAL CATIONS: The effect of Mg^2+, […] and Mn^2+ ions was investigated using the assay mixture detailed below. […]
test_readout: remaining activity at 1000 µM (%)

>>> recorded_number("c1ccc(-c2ccccn2)nc1")
106
>>> recorded_number("O[C@H](CS)[C@H](O)CS (racemic)")
95
>>> recorded_number("CCN1C(=O)C=CC1=O [N-Ethylmaleimide]")
81
>>> recorded_number("c1cnc2c(c1)ccc1cccnc12")
99
>>> recorded_number("NC(=O)CI [Iodoacetamide]")
90
